# assay_name: Mouse liver microsome stability assay
# Type: in vitro ADME
# particulars: male, CD1, mouse, microsomes, pH 7.4
measure: half-life at 0.5 μM

Record request: half-life at 0.5 μM value, item Cn1cc(-c2cc(C(=O)N3CCC(NC(=O)OC(C)(C)C)C3)ccc2Oc2ccc(F)cc2F)c2cc[nH]c2c1=O (stereo not shown) 2 min

Again, but for CN(C)S(=O)(=O)Nc1ccc(Oc2ccccc2)c(-c2cn(C)c(=O)c3[nH]ccc23)c1 10.7 min

# repeat for Cn1cc(-c2cc(C(=O)NCc3cccnc3)ccc2Oc2ccc(F)cc2F)c2cc[nH]c2c1=O 4 min

Another compound: Cn1cc(-c2cc(S(C)(=O)=O)ccc2Oc2ccc(Cl)cc2)c2cc[nH]c2c1=O 18 min

Note, next up: Cn1cc(-c2cc(S(C)(=O)=O)ccc2Oc2ccc(F)cc2F)c2cc(CNC3CCOC3)[nH]c2c1=O (stereo not shown) > 120 min

Cn1cc(-c2cc(S(N)(=O)=O)cnc2Oc2ccc(F)cc2F)c2cc[nH]c2c1=O , same question. > 120 min

Another compound: CCS(=O)(=O)Nc1ccc(Oc2ccc(F)cc2F)c(-c2cn(C)c(=O)c3[nH]c(CO)cc23)c1 > 120 min

// same read-out, input: Cn1cc(-c2cc(CS(C)(=O)=O)ccc2Oc2ccc(F)cc2F)c2cn[nH]c2c1=O > 120 min

Record: Cn1cc(-c2cc(C(=O)NCc3ccncc3)ccc2Oc2ccc(F)cc2F)c2cc[nH]c2c1=O 24 min

Repeat with Cn1cc(-c2cc(CS(C)(=O)=O)ccc2Nc2ccc(F)cc2)c2cc[nH]c2c1=O 54 min

Same for Cn1cc(-c2cc(-c3cccc(C#N)c3)ccc2OCC2CC2)c2cc[nH]c2c1=O 10 min

Queued: CCS(=O)(=O)Nc1ccc(Oc2ccc(C(N)=O)cc2)c(-c2cn(C)c(=O)c3[nH]ccc23)c1 > 120 min

Then what about the compound Cc1ccc(F)cc1Oc1ccc(S(C)(=O)=O)cc1-c1cn(C)c(=O)c2[nH]ccc12 ? 5 min

Next: Cn1cc(-c2cc(S(=O)(=O)N3CCc4ccccc43)ccc2Oc2ccc(F)cc2F)c2cc[nH]c2c1=O 2 min

Request: CCS(=O)(=O)Nc1ccc(Oc2ccccc2)c(-c2cn(C)c(=O)c3[nH]ccc23)c1 22 min

Request: Cn1cc(-c2cc(NS(=O)(=O)CC(F)(F)F)ccc2OC2CCC(F)(F)CC2)c2cc[nH]c2c1=O 37 min
